Here's what we have: Ki numbers for cloned human H3 receptors (Homo sapiens).
READOUT KIND: Ki (nM)

See these solved cases before continuing.
Cc1ccc(C(=O)N2CCc3cc(C(=O)N4CCN(C5CCCC5)CC4)ccc3C2)cc1	65
O=C(c1ccc2c(c1)CCN(Cc1ccc(C(F)(F)F)cc1)C2)N1CCN(C2CCC2)CC1	20
O=C(c1ccc2c(c1)CN(C(=O)c1ccccc1)CC2)N1CCCN(C2CCC2)CC1	1
O=C(c1ccc2c(c1)CCN(C(=O)c1ccc(F)cc1)C2)N1CCN(C2CCC2)CC1	17
O=C(c1ccc2c(c1)CCN(C(=O)c1ccc(Cl)cc1Cl)C2)N1CCCN(C2CCC2)CC1	1

(a) O=C(c1ccccc1Cl)N1CCc2cc(C(=O)N3CCC[C@H]3CN3CCCC3)ccc2C1
(b) O=C(c1ccc2c(c1)CCN(C(=O)c1ccccc1F)C2)N1CCN2CCCCC2C1 (stereo not drawn)
## Task Select one: a or b . Criterion: greater recorded Ki. Lab log: write the label of the selected item as the result.
## Result b
(b: 27 nM, a: 12 nM)

(A) CN(C)[C@H]1CCN(C(=O)c2ccc3c(c2)CCN(C(=O)C2CCCCC2)C3)C1
(B) O=C(c1ccc2c(c1)CCN(C(=O)C1CCCCC1)C2)N1CCN2CCCC2C1 (stereo not drawn)
## Task Record comparison, field Ki: mark the lower of A and B . Please reply using the label of the selected record.
## Result A
(A: 30 nM, B: 54 nM)

---

The reader will find Ki measurements below, all made with cloned human H3 receptors (Homo sapiens, UniProt Q9Y5N1).
Sequence (Q9Y5N1 whole entry): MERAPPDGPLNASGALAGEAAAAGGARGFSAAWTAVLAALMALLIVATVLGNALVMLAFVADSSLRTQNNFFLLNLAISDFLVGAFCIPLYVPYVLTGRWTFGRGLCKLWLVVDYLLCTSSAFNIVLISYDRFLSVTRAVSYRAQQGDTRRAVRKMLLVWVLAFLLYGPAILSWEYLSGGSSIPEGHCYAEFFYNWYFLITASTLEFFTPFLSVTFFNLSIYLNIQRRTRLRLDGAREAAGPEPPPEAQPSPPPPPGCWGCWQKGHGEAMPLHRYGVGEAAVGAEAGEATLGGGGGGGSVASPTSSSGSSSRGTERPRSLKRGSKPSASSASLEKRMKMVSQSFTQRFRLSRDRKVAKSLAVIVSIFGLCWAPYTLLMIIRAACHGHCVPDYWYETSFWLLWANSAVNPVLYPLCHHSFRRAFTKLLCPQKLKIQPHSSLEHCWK
READOUT KIND: Ki (nM)

Use the examples below as a reference point.
CC(C)N1CCc2cc(C(=O)N3CCOCC3)ccc2C1	2140
O=C(c1ccc(F)cc1)N1CCc2cc(C(=O)N3CCC[C@H]3CN3CCCC3)ccc2C1	17
O=C(c1ccc2c(c1)CCNC2)N1CCOCC1	4000
O=C(C1CCCCC1)N1CCc2cc(CN3CCN(C4CCC4)CC3)ccc2C1	860
CC(C)(C)C1CCN(C(=O)c2ccc3c(c2)CCN(C2CCC2)C3)CC1	340
CCCN1CCc2cc(C(=O)N3CCC(C(C)(C)O)CC3)ccc2C1	4200

(a) COc1ccc(C(=O)N2CCc3cc(C(=O)N4CCN(C(C)C)CC4)ccc3C2)cc1
(b) O=C(c1ccc2c(c1)CCN(C1CCC1)C2)N1CCN2CCCCC2C1 (centres unmarked)
## Task Please indicate which item has the smaller measured Ki: a versus b Write down the label of the entry you select.
## Result b

---

// Ki collected for cloned human H3 receptors (Homo sapiens)
READOUT KIND: Ki (µM)

These solved cases illustrate the format of a correct answer.
O=C(c1ccc2c(c1)CCN(C1CCC1)C2)N1CCCCC1	2.1
O=C(c1ccc2c(c1)CCNC2)N1CCCCC1	3

(a) Cc1cccc(C(=O)N2CCc3cc(C(=O)N4CCN(C5CCC5)CC4)ccc3C2)c1
(b) CC(C)(C)C1CCN(C(=O)c2ccc3c(c2)CCN(C2CCCC2)C3)CC1
## Task Identify the entry with the larger Ki. Options: a and b Response format: the label of the selected entry.
## Result b
(b: 0.24 µM, a: 0.012 µM)

---

TGT: cloned human H3 receptors (Homo sapiens)
READOUT KIND: Ki (nM)

O=C(Cc1ccccc1)N1CCc2cc(C(=O)N3CCN(C4CCC4)CC3)ccc2C1	18
O=C(c1ccccc1)N1CCc2cc(C(=O)N3CCC[C@H]3CN3CCCC3)ccc2C1	18
O=C(c1ccc2c(c1)CCN(S(=O)(=O)c1ccc(F)cc1)C2)N1CCN(C2CCC2)CC1	16
COc1ccc(C(=O)N2CCc3cc(C(=O)N4CCC[C@H]4CN4CCCC4)ccc3C2)cc1	21

---

Record set of pKi for target or system cloned human H3 receptors (Homo sapiens, UniProt Q9Y5N1).
pKi: −log10 of the molar value.
READOUT KIND: pKi

Consider the following illustrative entries.
CC(C)N1CCc2cc(C(=O)N3CCC(C(C)(C)O)CC3)ccc2C1	5.48
O=C(c1ccc2c(c1)CCN(C(=O)c1ccccc1)C2)N1CCN(C2CCC2)CC1	8.05

(P) O=C(c1ccc2c(c1)CCN(Cc1ccc(Cl)c(Cl)c1)C2)N1CCN(C2CCC2)CC1
(Q) CCCN1CCc2cc(C(=O)N3CCN4CCCCC4C3)ccc2C1 (stereo not drawn)
## Task Higher pKi between P and Q ? Answer with the label corresponding to your selection.
## Result Q
(Q: 8.70, P: 7.74)

---

// cloned human H3 receptors (Homo sapiens, UniProt Q9Y5N1) pKi records
pKi: −log10 of the molar value.
READOUT KIND: pKi

Examples with answers:
O=C(C1CCCCC1)N1CCc2cc(CN3CCCCC3)ccc2C1 [Example 166]	7.35
CCCN1CCc2cc(C(=O)N3CCOCC3)ccc2C1 [Example 180]	5.05

(P) O=C(c1ccc2c(c1)CCN(C(=O)c1ccccc1Cl)C2)N1CCN(C2CCC2)CC1 [Example 42]
(Q) O=C(c1ccc(F)cc1)N1CCc2cc(C(=O)N3CCN4CCCCC4C3)ccc2C1 (centres unmarked) [Example 88]
## Task Please choose the item with the lower pKi value from this pair: P and Q Reply with the label of the item you choose.
## Result Q
(Q: 7.62, P: 8.00)

Values compiled from patent US20090099158A1.
